Test system: M14 melanoma
Experiment: NCI-60 one-dose screen, 48 h
Conditions: 10 µM unless noted
The panel holds about 83,000 compounds, 20% with a hit somewhere; the sample as a whole holds those more often. Calls of active or inactive are those of the source. The calls were made as follows: active = growth percent below 10; inactive = the rest.
Outcome codes: active, inactive

{"compound": "CSc1nn2c(-c3cc4cc(Br)ccc4oc3=O)ccnc2c1C#N", "class-label": "inactive"}
{"compound": "CN(C)c1ccc(/C=C/C2=[N+](C)c3ccccc3C2(C)C)cc1", "class-label": "inactive"}
{"compound": "O=C1C(c2c(O)[nH]c3ncccc23)=Nc2ccccc21", "class-label": "inactive"}
{"compound": "O=C(Nc1ccc2c(c1)-c1ccccc1C2)C1CC(=O)N(c2ccc3c(c2)OCO3)C1 (stereo unspecified)", "class-label": "inactive"}
{"compound": "CCC(C)C(N)C(=O)NC(CC(C)C)C(=O)N1CCCC1C(=O)NC(Cc1c[nH]c2ccccc12)C(=O)NC(CCCCN)C(=O)NC(Cc1c[nH]c2ccccc12)C(=O)N1CCCC1C(=O)NC(Cc1c[nH]c2ccccc12)C(=O)NC(Cc1c[nH]c2ccccc12)C(=O)N1CCCC1C(=O)NC(Cc1c[nH]c2ccccc12)C(=O)NC(CCCNC(=N)N)C(=O)NC(CCCNC(=N)N)C(N)=O (stereo unspecified)", "class-label": "inactive"}
{"compound": "COc1cc(OC)cc(C(=O)Nc2cnc(Nc3ccc(N4CCOCC4)nc3)nc2Oc2ccc(C(F)(F)F)cc2)c1", "class-label": "inactive"}
{"compound": "O=C(CSc1nnc(-c2cc(-c3ccc(Cl)cc3)nc3ccccc23)n1-c1ccccc1)Nc1ccc(Cl)cc1", "class-label": "inactive"}
{"compound": "Cn1ncc(CC(=O)O)c1-n1nnc2cc(Cl)ccc2c1=O", "class-label": "inactive"}
{"compound": "O=C(Nc1cccc(Cn2c(=O)[nH]c3ccc(Oc4ncccn4)cc3c2=O)c1)c1cccc(Cl)c1", "class-label": "inactive"}
{"compound": "CC(C)n1nc(-c2ccc3oc(N)nc3c2)c2c(N)ncnc21", "class-label": "active"}
{"compound": "O=c1[nH]c(CN2CCN(c3ccccc3)CC2)nc2c(Br)cc(Br)cc12", "class-label": "inactive"}
{"compound": "O=C(Nc1cccc(Cl)c1)Oc1c(Cl)c(Cl)c(Cl)c(Cl)c1Cl", "class-label": "inactive"}
{"compound": "COc1cccc(CNc2nnc(C)c(C)n2)c1O", "class-label": "inactive"}
{"compound": "CNC1=C(Br)C(=O)c2c(C(=O)OC)c(C)nc(C)c2C1=O", "class-label": "inactive"}
{"compound": "C=C(C)[C@@H]1CC[C@]2(COC(=O)c3cccnc3)CC[C@]3(C)[C@H](CC[C@@H]4[C@@]5(C)CCCN(C(=O)c6cccnc6)C(C)(C)[C@@H]5CC[C@]43C)[C@@H]12", "class-label": "inactive"}
{"compound": "Nc1n[nH]c2cccc(C#Cc3cccc(C(=O)Nc4ccc(Cl)c(C(F)(F)F)c4)c3)c12", "class-label": "inactive"}
{"compound": "c1ccc2c(-c3cnn4cc(-c5ccc(N6CCNCC6)cc5)cnc34)ccnc2c1", "class-label": "active"}
{"compound": "COc1ccc(NC(=O)CSc2oc(-c3ccccc3)nc2S(=O)(=O)c2ccc(Cl)cc2)c(OC)c1", "class-label": "inactive"}
{"compound": "Cc1oc2ccc(O)c(CN3CCCCCC3)c2c1C(=O)Nc1ccc(C(F)(F)F)cc1", "class-label": "inactive"}
{"compound": "COc1ccc(-c2nc(SCCC(C)C)nc(N/N=C(/C)c3ccc(N)cc3)c2C#N)cc1", "class-label": "inactive"}
{"compound": "O=C(O)/C=C\\C(=O)Nc1ccc2c(c1)Cc1cc(F)ccc1-2", "class-label": "inactive"}
